Quick reference: Average of S/B of the listed items.
Biological target: T1, recombinant purified FRα (ECL assay calibrator) (human, UniProt P15328 25-234)
T1 construct: Calibrator of the ECL sandwich assays; also called FRα calibrator; FRα standard
T1 sequence (P15328 25-234 limits assumed): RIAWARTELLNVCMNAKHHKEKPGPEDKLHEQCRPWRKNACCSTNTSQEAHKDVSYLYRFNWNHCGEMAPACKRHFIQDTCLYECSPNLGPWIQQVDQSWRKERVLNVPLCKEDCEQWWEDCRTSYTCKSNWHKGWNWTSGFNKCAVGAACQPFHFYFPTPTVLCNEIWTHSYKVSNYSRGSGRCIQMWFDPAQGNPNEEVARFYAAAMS
Test: ECL sandwich on FRα, signal to background; capture 24H8.D3; binder = detection Ab
# output: bare number, no unit

Sample answers from the record:
BINDER	Average of S/B
Monoclonal antibody 24H8.F3 (antibody, mouse IgG1, V domains shown, Murine IgG1 kappa from hybridoma; also called ATCC PTA-123097) VH: GPGLVAPSQSLSITCTVSGFSLTSYGVSWVRQPPGKGLEWLGVIWGDGSTNYHSTLISRLSISKDNSKSQVFLKLNSLQTDDTATYYCAKPHPAATGAMDYWGQGTSVTVSS VL: TTSSLSASLGDRVTISCRASQDISNHLNWYQQKPDGTIKLLIYYTSKLHSGVPSRFSGSGSGTDYSLTISNLEQEDIATYFCQQGNTLWTFGGGTKLEIK	2
Monoclonal antibody 19D4.B7 (antibody, mouse IgG2a, V domains shown, SULFO-TAG conjugated when used as detection antibody in the ECL assay; also called ATCC PTA-11884) VH: GARELVKPGASVKLSCTASGFNIKHPYMHWVKQRPDQGLEWIGRIDPANGNTKYDPKFQGKATITADTSSNTAYLQLSSLTSEDTAVYYCGREEVADYTMDYWGQGTSVTVSS VL: PASLAVSLGQRATISCRASESVDTYGNNFIHWYQQKPGQPPKLLIYLASNLESGVPARFSGSGSRTDFTLTIDPVEADDAATYYCQQNNGDPWTFGGGTKLEIKR	361

For the next question, use this binder.
Give its Average of S/B value. Item: Monoclonal antibody 1D2.D8.G10 (antibody, mouse IgG1, V domains shown, Murine IgG1 kappa from hybridoma; also called 1D2.D8.G0; ATCC PTA-123098) VH: QSGTVLARPGASVKMSCKASGYSFTSNWMHWIKQRPGQGLEWIGAIYPGNSDTSYNQKFKGKAKLTAVTSASTAYMELSSLTNEDSAVYHCTRGDGSSFWYFDVWGAGTTVTVSS VL: QSPASLVVSLGQRATISCRASKSVSTSGYSYMYWYQQKSGQPPKLLIYLASNLESGVPARFSGGGSGTDFTLNIHPVEEEDAATYYCQQSRELPPTFGGGTKLEIK 1
